Attribution: ChEMBL document CHEMBL3991601

Target: Ribosomal protein S6 kinase alpha-3 (Homo sapiens); note: in the data inactive means no Kd found up to 30 µM
Sequence (P51812 whole entry): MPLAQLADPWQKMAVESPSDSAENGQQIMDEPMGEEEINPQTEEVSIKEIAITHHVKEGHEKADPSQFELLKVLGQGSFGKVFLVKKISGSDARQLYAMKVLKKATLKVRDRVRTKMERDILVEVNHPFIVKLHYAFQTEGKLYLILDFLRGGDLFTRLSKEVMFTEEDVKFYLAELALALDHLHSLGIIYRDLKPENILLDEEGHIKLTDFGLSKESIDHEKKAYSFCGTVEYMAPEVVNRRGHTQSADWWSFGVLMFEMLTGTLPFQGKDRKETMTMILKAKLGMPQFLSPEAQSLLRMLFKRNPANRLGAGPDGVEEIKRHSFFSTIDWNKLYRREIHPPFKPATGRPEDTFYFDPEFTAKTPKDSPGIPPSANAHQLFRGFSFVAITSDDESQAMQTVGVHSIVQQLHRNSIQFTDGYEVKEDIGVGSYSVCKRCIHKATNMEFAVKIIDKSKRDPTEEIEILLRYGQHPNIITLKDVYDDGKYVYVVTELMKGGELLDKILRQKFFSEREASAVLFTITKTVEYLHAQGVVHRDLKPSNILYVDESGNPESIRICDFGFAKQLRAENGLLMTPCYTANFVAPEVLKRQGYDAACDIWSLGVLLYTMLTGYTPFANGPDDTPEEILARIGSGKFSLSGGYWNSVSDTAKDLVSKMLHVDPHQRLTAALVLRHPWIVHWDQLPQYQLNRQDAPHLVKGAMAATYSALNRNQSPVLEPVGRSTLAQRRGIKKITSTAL
Activity calls are given as the source filed them.
Your reply should match one of these outcome classes. active, inactive

Exercise: Given CC(C)(O)CC(=O)NCCn1ccc2ncnc(Nc3ccc(Oc4cccc(C(F)(F)F)c4)c(Cl)c3)c21 [TAK-285] , state the outcome it received in this test.
Key: inactive

Exercise: Given CCN1CCN(Cc2ccc(Nc3ncc(F)c(-c4cc(F)c5nc(C)n(C(C)C)c5c4)n3)nc2)CC1 [ABEMACICLIB] , state the outcome it received in this test.
Key: inactive

Exercise: Given Cc1cc(Nc2nc(N[C@@H](C)c3ncc(F)cn3)ncc2Cl)n[nH]1 [AZD-1480] , state the outcome it received in this test.
Key: inactive

Exercise: Given C=CC(=O)Nc1cccc(Nc2nc(Nc3ccc(N4CCN(C(C)=O)CC4)cc3OC)ncc2C(F)(F)F)c1 [ROCILETINIB] , state the outcome it received in this test.
Key: inactive

Exercise: Given CCc1nc(C(N)=O)c(Nc2ccc(N3CCC(N4CCN(C)CC4)CC3)c(OC)c2)nc1NC1CCOCC1 [GILTERITINIB] , state the outcome it received in this test.
Key: active

Exercise: Given S=C(NCc1ccc2c(c1)OCO2)N1CCN(c2ncnc3c2oc2ccccc23)CC1 [AMUVATINIB] , state the outcome it received in this test.
Key: inactive

Exercise: Given COc1cc(F)c(F)c(Nc2ccc(I)cc2F)c1NS(=O)(=O)C1(C[C@H](O)CO)CC1 [REFAMETINIB] , state the outcome it received in this test.
Key: inactive

Exercise: Given C[C@@H]1COC(Nc2ccc3ncnc(Nc4ccc(OCc5nccs5)c(Cl)c4)c3c2)=N1 [VARLITINIB] , state the outcome it received in this test.
Key: inactive
